assay.system: IRAK4 enzyme (Homo sapiens (Human))
assay.text: biochemical
Assay type: biochemical
details: IRAK4 enzyme, TR-FRET, 500 μM ATP
pIC50: −log10 of the molar value.
# Lookup of reported pIC50 keyed by entry

COc1cnc(Nc2cc(-c3ccc4cc(C#N)cnn34)ncc2C(=O)NC[C@@H](F)C(C)(C)O)cn1 [Example 840] : > 9.00
CC(C)(O)[C@H](F)CNC(=O)c1cnc(-c2ccc3cc(C#N)cnn23)cc1Nc1ccc(C(C)(C)N2CCOC2=O)cc1 [Example 874] : > 9.00

In: Give its pIC50 value. Item: CC(C)(O)[C@H](F)CNC(=O)c1cnc(-c2ccc3cc(C#N)cnn23)cc1Nc1ccc(-c2ncc[nH]2)cc1 [Example 230]
Out: > 9.00

====

assay.system: IRAK4 enzyme (Homo sapiens (Human))
assay.text: biochemical
Type: biochemical
details: IRAK4 enzyme, TR-FRET, 500 μM ATP
measured.endpoint: IC50

N#Cc1cnn2c(-c3cc(Nc4cnc5c(c4)OCCO5)c(C(=O)N[C@H]4CC[C@H](NC(=O)N5CCOCC5)CC4)cn3)ccc2c1 : < 1 nM
CC(C)(O)[C@H](F)CNC(=O)c1cnc(-c2ccc3cc(C#N)cnn23)cc1Nc1ccc(-n2ccccc2=O)cc1 : < 1 nM

Moving on to the next molecule.
In: Give its IC50 value. Item: COC(=O)NC[C@H]1C[C@H](Nc2cc(-c3ccc4cc(C#N)cnn34)ncc2C(=O)NC2CCC(NC(=O)C3CC3)CC2)C1 (stereo partly drawn)
Out: < 1 nM

====

assay.system: IRAK4 enzyme (Homo sapiens (Human), UniProt Q9NWZ3)
Sequence (Q9NWZ3 whole entry): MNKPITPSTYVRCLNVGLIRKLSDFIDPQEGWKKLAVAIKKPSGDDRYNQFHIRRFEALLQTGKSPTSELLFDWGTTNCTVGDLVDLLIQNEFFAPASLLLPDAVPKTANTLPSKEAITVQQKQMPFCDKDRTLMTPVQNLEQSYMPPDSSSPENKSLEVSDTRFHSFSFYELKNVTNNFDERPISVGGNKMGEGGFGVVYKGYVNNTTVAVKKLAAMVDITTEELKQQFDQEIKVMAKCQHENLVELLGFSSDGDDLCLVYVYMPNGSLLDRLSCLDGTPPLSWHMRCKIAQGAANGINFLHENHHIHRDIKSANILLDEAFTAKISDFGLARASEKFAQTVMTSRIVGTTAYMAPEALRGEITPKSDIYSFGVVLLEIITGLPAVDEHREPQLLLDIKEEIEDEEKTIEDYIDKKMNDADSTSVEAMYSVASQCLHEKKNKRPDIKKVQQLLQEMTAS
assay.text: biochemical
Format: biochemical
details: IRAK4 enzyme, TR-FRET, 500 μM ATP
# Lookup of reported pIC50 keyed by entry
Expect pIC50 as a plain number equal to -log10 of the molar concentration.

COC(=O)[C@H](C)NC(=O)c1cnc(-c2ccc3cc(C#N)cnn23)cc1NC12CCC(O)(CC1)CC2 : 9.00

In: Give its pIC50 value. Item: "N#Cc1cnn2c(-c3cc(NC45CCC(O)(CC4)CC5)c(C(=O)N[C@@H]4CCCNC4=O)cn3)ccc2c1"
Out: 9.00

In: Give its pIC50 value. Item: "COCC1(Nc2cc(-c3ccc4cc(C#N)cnn34)ncc2C(=O)NC[C@@H](F)C(C)(C)O)CC1"
Out: 8.40

In: Give its pIC50 value. Item: CC1(C)OCCC1Nc1cc(-c2ccc3cc(C#N)cnn23)ncc1C(=O)NC[C@@H](F)C(C)(C)O (stereo partly shown)
Out: 8.52

In: Give its pIC50 value. Item: "CC(C)(O)[C@H](F)CNC(=O)c1cnc(-c2ccc3cc(C#N)cnn23)cc1Nc1ccc(CN2CC(F)(F)C2)cc1"
Out: 9.00

In: Give its pIC50 value. Item: "Cn1cc(CNC(=O)c2cnc(-c3ccc4cc(C#N)cnn34)cc2NC23CCC(O)(CC2)CC3)cn1"
Out: 8.70

In: Give its pIC50 value. Item: "CC(C)(O)[C@H](F)CNC(=O)c1cnc(-c2ccc3cc(C#N)cnn23)cc1N[C@@H]1C[C@@H]2CC[C@H]1O2"
Out: 9.00

In: Give its pIC50 value. Item: "CC(C)(O)[C@H](F)CNC(=O)c1cnc(-c2ccc3cc(C#N)cnn23)cc1NCC1(O)CC1"
Out: 8.70

In: Give its pIC50 value. Item: "CC1(NC(=O)c2cnc(-c3ccc4cc(C#N)cnn34)cc2NC23CCC(O)(CC2)CC3)CC1"
Out: 9.00

In: Give its pIC50 value. Item: "CC(C)(O)[C@H](F)CNC(=O)c1cnc(-c2ccc3cc(C#N)cnn23)cc1N[C@H]1C[C@H]2CNC[C@H]2C1"
Out: 8.52

In: Give its pIC50 value. Item: "CC(C)Nc1cc(-c2ccc3cc(C#N)cnn23)ncc1C(=O)NC1CC2(CC(=O)C2)C1"
Out: 8.70

In: Give its pIC50 value. Item: CC(C)(O)[C@H](F)CNC(=O)c1cnc(-c2ccc3cc(C#N)cnn23)cc1NC1CCC(C(=O)N2CCOCC2)CC1 (stereo partly shown)
Out: 8.70

In: Give its pIC50 value. Item: "COCC(=O)N1CCC(Nc2cc(-c3ccc4cc(C#N)cnn34)ncc2C(=O)NC[C@@H](F)C(C)(C)O)CC1"
Out: 8.22

Cited source for all entries: patent US10336762B2
